- PROTOCOL_NOTES: chemical genetic growth profiling, strain panel (AID 1159580);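 also: tested at 20 µM; growth read once vehicle control cultures reached saturation at 30 °C; 1 = growth at the plate median or of vehicle wells; lower values mean less growth of the strain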
- CONDITIONS_USED: S. cerevisiae deletion strains, growth OD, locus YGR078C, strain PAC10
The campaign covered roughly 5,500 compounds. About 2,000 (36%) were called active. About 18% were inconclusive and are not listed. Rule as the data show it: active = normalized growth mostly below about 0.91 (no sharp cut-off); inconclusive = no clear call, values can overlap the other calls; inactive = mostly above about 0.92. The list shows a part of the results.
Allowed answers: true (1) for active, false (0) for inactive

Reference set (5 entries):
compound=Cc1ccc2cc(NC(=O)c3ccco3)ccc2n1 answer_label="false (0)"
compound="CC(CN(C)C)CN1c2ccccc2CCc2ccccc21 (stereo not given)" answer_label="false (0)"
compound=N[C@@H](Cc1cc(I)c(Oc2ccc(O)c(I)c2)c(I)c1)C(=O)O answer_label="false (0)"
compound=COc1ccc(C(=O)C2CCNCC2)cc1 answer_label="false (0)"
compound="CC(CCC(=O)O)[C@H]1CCC2C3CC[C@@H]4C[C@H](O)CC[C@]4(C)C3CC[C@@]21C (stereo not given in full)" answer_label="true (1)"

What did this assay record as the result for "Cc1nn(Cc2n[nH]c(=S)o2)c(C)c1Br" ? false (0)

What did this assay record as the result for Cc1cc(C)cc(OCC2CNC(=O)O2)c1 (stereo not given) ? false (0)

What did this assay record as the result for CC(C)CCCC(C)C1CCC2C3CC[C@H]4CCCC[C@]4(C)C3CC[C@]12C (stereo not given in full) ? false (0)
